B1: Lysine-specific demethylase 4A (Homo sapiens), O75164 (parent)
chain: MASESETLNPSARIMTFYPTMEEFRNFSRYIAYIESQGAHRAGLAKVVPPKEWKPRASYDDIDDLVIPAPIQQLVTGQSGLFTQYNIQKKAMTVREFRKIANSDKYCTPRYSEFEELERKYWKNLTFNPPIYGADVNGTLYEKHVDEWNIGRLRTILDLVEKESGITIEGVNTPYLYFGMWKTSFAWHTEDMDLYSINYLHFGEPKSWYSVPPEHGKRLERLAKGFFPGSAQSCEAFLRHKMTLISPLMLKKYGIPFDKVTQEAGEFMITFPYGYHAGFNHGFNCAESTNFATRRWIEYGKQAVLCSCRKDMVKISMDVFVRKFQPERYKLWKAGKDNTVIDHTLPTPEAAEFLKESELPPRAGNEEECPEEDMEGVEDGEEGDLKTSLAKHRIGTKRHRVCLEIPQEVSQSELFPKEDLSSEQYEMTECPAALAPVRPTHSSVRQVEDGLTFPDYSDSTEVKFEELKNVKLEEEDEEEEQAAAALDLSVNPASVGGRLVFSGSKKKSSSSLGSGSSRDSISSDSETSEPLSCRAQGQTGVLTVHSYAKGDGRVTVGEPCTRKKGSAARSFSERELAEVADEYMFSLEENKKSKGRRQPLSKLPRHHPLVLQECVSDDETSEQLTPEEEAEETEAWAKPLSQLWQNRPPNFEAEKEFNETMAQQAPHCAVCMIFQTYHQVEFGGFNQNCGNASDLAPQKQRTKPLIPEMCFTSTGCSTDINLSTPYLEEDGTSILVSCKKCSVRVHASCYGVPPAKASEDWMCSRCSANALEEDCCLCSLRGGALQRANDDRWVHVSCAVAILEARFVNIAERSPVDVSKIPLPRFKLKCIFCKKRRKRTAGCCVQCSHGRCPTAFHVSCAQAAGVMMQPDDWPFVVFITCFRHKIPNLERAKGALQSITAGQKVISKHKNGRFYQCEVVRLTTETFYEVNFDDGSFSDNLYPEDIVSQDCLQFGPPAEGEVVQVRWTDGQVYGAKFVASHPIQMYQVEFEDGSQLVVKRDDVYTLDEELPKRVKSRLSVASDMRFNEIFTEKEVKQEKKRQRVINSRYREDYIEPALYRAIME

Variants of: B1
Settings: with h31t_human H3-4, Q16695
measuredProperty: effect of a mutation on the interaction

The cases that follow already have their effect of a mutation on the interaction on record.
D135A | decreasing interaction
N290A | disrupting interaction
K241A | disrupting interaction
N86A | decreasing interaction

// query So what does the record say about effect of a mutation on the interaction for Q88A ?
// result decreasing interaction

// query So what does the record say about effect of a mutation on the interaction for Y175F ?
// result decreasing interaction

// query So what does the record say about effect of a mutation on the interaction for Y177F ?
// result decreasing interaction
